Target: ScBzz1-D1
Test: SPOT peptide array binding signal intensity (averaged, normalized) (arbitrary units (background-subtracted, floor 0; scale differs between SH3 domains)); higher = stronger binding of the SH3 domain to the peptide
Think of 10 as a floor: if SPOT peptide array binding signal intensity stands on it or above, it is Criterion met; beneath it, Criterion not met.

### Prompt Quick check: does AAHKTKPSIPPKKVE have SPOT peptide array binding signal intensity greater than or equal to 10?
### Response Criterion not met

### Prompt Entry QTMRQAPKRPDADVA : is its SPOT peptide array binding signal intensity no less than 10?
### Response Criterion not met

### Prompt Does TKHKAPPPPPPTAET have a reported SPOT peptide array binding signal intensity of at least 10?
### Response Criterion met

### Prompt Test whether the binder GERSRPLVISILSSA records SPOT peptide array binding signal intensity of 10 or higher.
### Response Criterion met

### Prompt Check the entry GDHPKGPPPPPPPPD : does SPOT peptide array binding signal intensity equal or exceed 10?
### Response Criterion met

### Prompt Is SPOT peptide array binding signal intensity for KDKSRPPRPPPKPLH at or above 10?
### Response Criterion met

### Prompt Item GAGERPRLVPRPINV with SPOT peptide array binding signal intensity of 10 or above?
### Response Criterion met

### Prompt Exam item: decide whether the reported SPOT peptide array binding signal intensity for TYNRTAFQIPGDQSI is at least 10.
### Response Criterion met

### Prompt Entry TIRRRAPLSLLESHT : is its SPOT peptide array binding signal intensity no less than 10?
### Response Criterion met
